experiment: THP-1 cell cytotoxicity, dose response, cytotoxicity control for non-replicating M. tuberculosis project (AID 489025); conditions: THP-1 cell viability; series mostly up to 40 µM
Screen size: about 2,300 compounds; about 790 (34%) were called active. The list shows a part of the results. Results with a measured potency or affinity are listed apart.
result type: outcome

Solved cases below.
Find the recorded outcome belonging to CC1CCN(C(=O)c2ccc(-c3ccccc3Cl)o2)CC1 and report it. inactive

Tell me the measured outcome of CCCCNC(=O)COC(=O)c1cc(Br)ccc1Cl , please. inactive

Recorded outcome of COc1ccc(NC(=O)C2COc3ccccc3O2)cc1 (centres undefined) , please. inactive

Bench note: what outcome did Cc1[nH]nc2c1C(c1ccc(OC(=O)c3ccco3)cc1)C(C#N)=C(N)O2 (centres undefined) show? inactive

Would you kindly share the measured outcome for O=C(Nc1cccnc1)c1ccc(-c2ccc(Cl)cc2)o1 ? inactive

Any idea what its outcome is? The compound is O=C(NCCC1CCCC1)c1cccs1 inactive

What measured outcome goes with CC(C)NC(=O)C1COc2ccccc2O1 (centres undefined) ? inactive

Give the measured outcome of Oc1c(Br)cc(Br)cc1/C=N/c1nccs1 . inactive

Continuing:
Which outcome is reported for this compound? CCN(CC)S(=O)(=O)c1ccc(C(=O)OCn2nnc3ccccc3c2=O)cc1 inactive

State the recorded outcome for this entry: Cn1ccsc1=NC(=O)c1ccccc1F inactive

# lookup: outcome of CCN(CC)c1ccc(NC2CC(=O)N(CCc3ccc(OC)cc3)C2=O)cc1 (centres undefined) inactive

Can you share its outcome? I mean this compound: CC(C)(C)c1ccc2c(c1)OC(C(=O)N/N=C\c1ccccn1)CO2 (centres undefined) inactive

# get_value(readout='outcome', item= Cc1ccc(N2NC(=O)/C(=C/C=C/c3ccco3)C2=O)cc1C ) inactive

Returns the measured outcome for the input compound. Input: N#CC(C(=O)NCc1ccco1)c1nc2ccccc2nc1N1CCOCC1 (centres undefined) inactive

Returns the measured outcome for the input compound. Input: Cc1c(Cl)cccc1NC(=O)C1COc2ccccc2O1 (centres undefined) inactive

Which value of outcome has been reported for O=C(Nc1cccc(Cl)c1)C1COc2ccccc2O1 (centres undefined) in the records? inactive

Look up outcome for this compound: CC(C)(O)C#Cc1ccc(C(=O)Nc2ccc3c(c2)OCO3)s1 inactive

Item CC(/C=C/c1ccc2c(c1)OCO2)=N/NC(=O)C1COc2ccccc2O1 (centres undefined) has what recorded outcome? inactive

----------
assay: THP-1 cell cytotoxicity, dose response, cytotoxicity control for non-replicating M. tuberculosis project (AID 489025); conditions: THP-1 cell viability; series mostly up to 40 µM
Among all 2,300 compounds or so, about 790 (34%) were called active. The list shows a part of the results. Results with a measured potency or affinity are listed apart.
result type: outcome

GET /values?readout=outcome&item= COc1cccc(COC(=O)CCNC(=O)c2ccc(Cl)cc2)c1OC inactive

Request the reported outcome associated with CCOC(=O)CCSc1n[nH]c(=S)s1 inactive

Quick one: outcome for Cc1ccccc1C1=N/C(=C/c2cccnc2)C(=O)O1 ? inactive

Name the recorded outcome for O=C(Nc1ncc2c(n1)-c1ccccc1OC2)c1ccc(F)cc1 . inactive

New cases:
Find the recorded outcome belonging to Nc1nonc1C(=O)NCCN=Cc1cc(Cc2ccccc2)cc(Br)c1O and report it. inactive

Reported outcome for Cc1nc2scc(-c3ccccc3)c2c(=O)o1 : what is it? inactive

----------
experiment: THP-1 cell cytotoxicity, dose response, cytotoxicity control for non-replicating M. tuberculosis project (AID 489025); settings: THP-1 cell viability; series mostly up to 40 µM
The campaign covered roughly 2,300 compounds. About 790 (34%) were called active. This is one part of the list. Entries with a potency or affinity are not part of this list.
result type: outcome

The examples below pair each entry with its known result.
Find the recorded outcome belonging to Cc1ccccc1OCCC(=O)OCC(=O)NNC(=O)c1cccs1 and report it. inactive

Endpoint output: outcome of O=S(=O)(c1ccc(Cl)c2ccccc12)N1CCCC1 . Value? inactive

What does the record list as outcome for C/C(=N\Nc1ccc(Cl)cc1)c1ccccn1 ? inactive

Could you tell me which outcome is on file for O=C(N/N=C/c1ccccn1)c1ccccc1 ? inactive

Fill blank: measured outcome of the molecule CC(CCc1ccccc1)NC(=O)COC(=O)c1cccs1 (configuration not stated) is ____. inactive

New cases:
Entry COc1cc(/C=N/NC(=O)c2ccccn2)ccc1OC(=O)c1cccs1 has what outcome? inactive

Can you look up the measured outcome of C/C(O)=C\c1nc2ccccc2oc1=O for me? inactive

----------
test: THP-1 cell cytotoxicity, dose response, cytotoxicity control for non-replicating M. tuberculosis project (AID 489025); settings: THP-1 cell viability; series mostly up to 40 µM
About 790 (34%) of roughly 2,300 compounds were called active. This is one part of the list. Potency and affinity values are given separately.
result type: outcome

Solved cases below.
Returns the measured outcome for the input compound. Input: OCC1(CCOc2ccccc2)CCN(Cc2cc(Cl)ccc2O)CC1 inactive

I would be grateful if you could share the reported outcome for O=C(NCc1ccc(F)cc1)c1cnccn1 . inactive

Consider the compound shown here: COc1cccc(NC(=O)c2cnc(SC)nc2)c1 What is its recorded outcome? inactive

Report outcome for COc1ccccc1NC(=O)c1cnc(SC)nc1 please. inactive

Reported outcome for CCOC(=O)C(=CNNc1cccc(Cl)c1)C(=O)OCC : what is it? inactive

Which value of outcome has been reported for COc1ccc(C2(O)CCN(CCCCOc3ccccc3)CC2)cc1 in the records? inactive

Others:
Item under review: Cc1cccc(C)c1NC(=O)COC(=O)CCc1c[nH]c2ccccc12 . Reported outcome? inactive

What value of outcome has been reported for the following compound? CCOc1cccc2cc(C(=O)NC(C)c3ccccc3)c(=N)oc12 (centres undefined) inactive

Item Cc1ccc(CN2CC(C(=O)OCc3ccccc3Cl)CC2=O)cc1 (centres undefined) has what recorded outcome? inactive

For the compound shown here, CC(=O)OCCN(C)c1cc(SC(C)C)c2nonc2c1[N+](=O)[O-] , give the reported outcome. inactive

I have this compound here, O=C(COc1cccc2ccccc12)Nc1ccc(Cl)cc1C(=O)O , and I need its recorded outcome. inactive

----------
assay: THP-1 cell cytotoxicity, dose response, cytotoxicity control for non-replicating M. tuberculosis project (AID 489025); conditions: THP-1 cell viability; series mostly up to 40 µM
Screen size: about 2,300 compounds; about 790 (34%) were called active. The list shows a part of the results. Potency and affinity values are given separately.
result type: outcome

Below are worked cases with known answers.
// lookup outcome for CSc1ccccc1C(=O)NCc1ccc(S(N)(=O)=O)cc1 inactive

Find the recorded outcome belonging to CC(C)(C)OC(=O)NCCC(=O)Oc1ccc2ccc(=O)oc2c1 and report it. inactive

Look up outcome for this molecule: Fc1ccc(-c2nnc(-c3ccc(F)cc3)o2)cc1 inactive

// returns reported outcome for input Fc1ccc(-c2nnc(CSc3nnc(-c4cccs4)o3)o2)cc1 inactive

Record request: outcome value, item C/C(=N\NC(=O)c1cccc(Cl)c1)C1C(=O)c2ccccc2C1=O inactive

More entries:
Consider the molecule shown here: O=C1CC(Sc2ncccn2)C(=O)N1c1ccccc1C(F)(F)F (configuration not stated) What is its recorded outcome? inactive

I would be grateful if you could share the reported outcome for Cc1ccc(C(=O)CCC2CCCC2=O)cc1 (configuration not stated) . inactive

Report outcome for C/C(=N\NC(=O)c1ccncc1)c1cc2ccccc2oc1=O please. inactive

Which measured outcome value corresponds to COc1cccc(OCc2nnc(-c3cccs3)o2)c1 ? inactive

Could you tell me which outcome is on file for CCOC(=O)c1ccc(N=CC2=C(O)CC(C)(C)CC2=O)cc1 ? inactive

Requested field: outcome. Item: CCCOC(=O)c1ccc(NC(=O)Cc2cccs2)cc1 inactive

Return reported outcome; argument: C/C(=N/NC(=O)c1ccncc1)C1=C(O)CC(C)(C)CC1=O inactive

----------
assay: THP-1 cell cytotoxicity, dose response, cytotoxicity control for non-replicating M. tuberculosis project (AID 489025); conditions: THP-1 cell viability; series mostly up to 40 µM
About 790 (34%) of roughly 2,300 compounds were called active. The list shows a part of the results. Results with a measured potency or affinity are listed apart.
result type: outcome

Answered examples (5):
# get_value(readout='outcome', item= Cc1cccc(NC(=O)COC(=O)CCc2c[nH]c3ccccc23)c1 ) inactive

What value of outcome has been recorded for this entry: CCOC(=O)c1c(-c2ccccc2)csc1NC(=O)CCN1CCOCC1 inactive

Form field: reported outcome of CSc1nn(-c2ccc(C(=O)OCC(=O)NC(=O)NC(C)C)cc2)c(=S)s1 inactive

Dear colleague, I am looking for the recorded outcome of the following compound: CC(C)OC(=O)CCCCCN1C(=O)CSC1=S inactive

// lookup outcome for CC(/C=C/c1ccccc1)=N\NC(=O)c1ccc2c(c1)OCCO2 inactive

Next:
GET /values?readout=outcome&item= Cc1c(Cl)cccc1-c1ccc(CNCc2ccccn2)o1 inactive

Query: outcome; subject: COc1ccc(CN=C(C#N)C2=C(O)c3ccccc3C2=O)cc1 inactive

Sample CCOC(=O)c1sc(NC(=O)CCN2CCOCC2)c(C(=O)OCC)c1C — what was its outcome? inactive
